- system: human glucagon receptor (human) (UniProt P47871)
- Sequence (P47871 26-477): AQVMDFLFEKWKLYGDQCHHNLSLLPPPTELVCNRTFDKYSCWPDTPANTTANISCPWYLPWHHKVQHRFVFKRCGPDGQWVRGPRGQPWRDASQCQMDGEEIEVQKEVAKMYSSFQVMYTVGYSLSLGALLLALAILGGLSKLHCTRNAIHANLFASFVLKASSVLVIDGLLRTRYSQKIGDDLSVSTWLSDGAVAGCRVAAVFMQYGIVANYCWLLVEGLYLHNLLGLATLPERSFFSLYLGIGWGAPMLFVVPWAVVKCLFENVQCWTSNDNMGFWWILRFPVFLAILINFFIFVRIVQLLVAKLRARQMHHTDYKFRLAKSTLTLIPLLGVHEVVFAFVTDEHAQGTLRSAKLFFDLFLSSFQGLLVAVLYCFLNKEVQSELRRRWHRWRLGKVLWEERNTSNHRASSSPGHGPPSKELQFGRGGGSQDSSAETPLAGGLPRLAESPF
- protocol notes: cell-based or functional assay
# key: entry, value: cAMP Rel EC50
Answer shape: numeric part, then the unit.

Reference set (2 entries):
binder	result
YXQGTFTSDFSQXLDKKAQXAFIEYLIEXGPSSGAPPPSGS (not fully specified; synthetic construct; SITE 2: note = 2-Aminoisobutyric Acid; SITE 13: note = alpha-methyl-leucine; SITE 17: note = Lysine is chemically modified through conjugation of the epsilon-amino group of the Lysine side chain with (gamma-Glu)3-CO-(CH2)16-CO2H; SITE 20: note = 3-(4-Pyridyl)-L-alanine; SITE 29:) [Example 862 (SEQ ID NO: 868)]	1110 nM
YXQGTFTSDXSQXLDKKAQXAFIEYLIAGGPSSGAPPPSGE (synthetic construct; SITE 2: note = 2-Aminoisobutyric Acid; SITE 10: note = 3-(4-Pyridyl)-L-alanine; SITE 13: note = alpha-methyl-leucine; SITE 17: note = Lysine is chemically modified through conjugation of the epsilon-amino group of the Lysine side chain with (gamma-Glu)2-CO-(CH2)16-CO2H; SITE 20:) [Example 883 (SEQ ID NO: 889)]	578 nM

Turning now to a further binder:
// query I'd like to know its cAMP Rel EC50. The binder in question is YXQGTFTSDFSQXLDKKAQXAFIEYLIAGGPSSGAPPPSGS (not fully specified; synthetic construct; SITE 2: note = 2-Aminoisobutyric Acid; SITE 13: note = alpha-methyl-leucine; SITE 17: note = Lysine is chemically modified through conjugation of the epsilon-amino group of the Lysine side chain with (gamma-Glu)2-CO-(CH2)16-CO2H; SITE 20: note = 3-(4-Pyridyl)-L-alanine; SITE 41:) [Example 876 (SEQ ID NO: 882)]
// result 940 nM
